# assay-procedure: AUCt in Sprague-Dawley rat at 5 umol/kg, iv
# Type: ADME, organism-based
# test-context: plasma
quantity-name: AUC(0-t)

What value of measured AUC(0-t) is listed for `C[C@H]1[C@H](n2ccc(N)nc2=O)O[C@@](CO)(N=[N+]=[N-])[C@H]1O` ? 4.97 µM·h
